- STUDY TARGET: Bombyx mori EcR (VP16 fusion, switch construct CVBE) with 6XEcRE LacZ reporter (Bombyx mori)
- Construct: expressed in transfected cells; host or cells: Human 293 kidney (HEK-293) cells, retrovirally infected, clone Z3
- Sequence (P49881 86-606 limits assumed): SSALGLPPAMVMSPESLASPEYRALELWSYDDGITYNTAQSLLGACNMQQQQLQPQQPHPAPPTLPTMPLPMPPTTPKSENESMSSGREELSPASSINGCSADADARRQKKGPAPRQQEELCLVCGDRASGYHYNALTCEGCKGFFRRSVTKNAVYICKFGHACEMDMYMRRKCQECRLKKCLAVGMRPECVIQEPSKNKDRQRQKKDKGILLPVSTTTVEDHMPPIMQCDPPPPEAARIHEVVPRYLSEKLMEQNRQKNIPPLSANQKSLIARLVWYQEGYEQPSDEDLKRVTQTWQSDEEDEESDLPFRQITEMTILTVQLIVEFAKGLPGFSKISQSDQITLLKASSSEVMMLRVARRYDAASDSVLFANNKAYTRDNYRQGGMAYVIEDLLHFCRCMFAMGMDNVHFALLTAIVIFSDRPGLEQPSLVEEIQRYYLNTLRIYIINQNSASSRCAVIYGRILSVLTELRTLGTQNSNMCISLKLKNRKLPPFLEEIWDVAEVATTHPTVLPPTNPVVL
- Sequence (P19793 whole entry partner, the tested form may be a part): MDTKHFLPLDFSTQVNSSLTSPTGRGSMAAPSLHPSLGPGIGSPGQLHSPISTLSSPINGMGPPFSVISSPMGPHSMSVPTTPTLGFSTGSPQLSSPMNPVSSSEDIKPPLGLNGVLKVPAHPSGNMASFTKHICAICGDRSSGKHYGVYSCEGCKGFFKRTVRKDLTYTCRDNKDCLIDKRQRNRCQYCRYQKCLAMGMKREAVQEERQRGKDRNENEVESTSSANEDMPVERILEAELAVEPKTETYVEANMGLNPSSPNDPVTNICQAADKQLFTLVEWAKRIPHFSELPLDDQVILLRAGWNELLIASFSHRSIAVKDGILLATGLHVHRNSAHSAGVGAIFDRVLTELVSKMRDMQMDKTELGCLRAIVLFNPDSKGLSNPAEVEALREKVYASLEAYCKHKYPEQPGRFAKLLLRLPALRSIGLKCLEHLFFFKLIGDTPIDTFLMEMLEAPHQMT
- ASSAY COMMENT: Z3 assay: β-galactosidase (LacZ) reporter gene fold induction in stably transformed human 293 kidney cells (clone Z3)
- Type: cell-based
- CONDITION: read-out: Z3 LC50; average; dose response, three-parameter logistic model
- Experimental: Dr. F. Gage provided a population of stably transformed cells containing CVBE and 6XEcRE as described in Suhr, S. T., Gil, E. B., Senut M. C., Gage, F. H. (1998) Proc. Natl. Acad. Sci. USA 95, 7999-804. […] Dilution cloning was used to isolate individual clones. […] Individual clones were evaluated based on their response in the presence and absence of test ligands. […]
# maps each entry to its CC50
Lab book: enter the figure in µM, no units written.

compound=COc1cccc(C(=O)NC2(C(=O)c3cc(C)cc(C)c3)CC2)c1C unit_symbol=µM meas_value=20.4

Requested field: CC50. Item: COc1cccc(C(=O)NC(C)(CC(C)C)C(=O)c2cccc(C)c2)c1C (centres unmarked) 6.09

# CC50 lookup, item COc1cccc(C(=O)NC2(C(=O)c3ccccc3C)CCCCC2)c1C 16.8

###

Entries and their 13B3 Rel Max FI
- STUDY TARGET: GAL4 DBD-CfEcR(DEF)/VP16AD-MmRXRE (Choristoneura fumiferana)
- Sequence (O77240 1-513): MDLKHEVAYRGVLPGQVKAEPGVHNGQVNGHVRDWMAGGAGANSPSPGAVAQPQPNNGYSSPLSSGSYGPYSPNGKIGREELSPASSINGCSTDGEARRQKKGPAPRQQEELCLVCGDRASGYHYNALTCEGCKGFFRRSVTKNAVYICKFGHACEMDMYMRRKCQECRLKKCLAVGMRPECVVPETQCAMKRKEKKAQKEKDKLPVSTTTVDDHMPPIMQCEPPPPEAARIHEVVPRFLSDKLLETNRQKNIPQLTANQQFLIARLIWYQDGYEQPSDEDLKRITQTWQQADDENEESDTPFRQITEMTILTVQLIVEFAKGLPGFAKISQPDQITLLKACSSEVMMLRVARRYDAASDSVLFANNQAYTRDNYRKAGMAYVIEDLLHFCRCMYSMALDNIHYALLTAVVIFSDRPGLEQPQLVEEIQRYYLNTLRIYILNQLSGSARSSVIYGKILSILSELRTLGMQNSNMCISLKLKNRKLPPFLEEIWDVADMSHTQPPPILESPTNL
- ASSAY COMMENT: cell-based
- CONDITION: maximum fold induction at any concentration relative to that of GS-E ligand
// return a plain number; no unit text

# query: 13B3 Rel Max FI of entry COc1cccc(C(=O)C2(NC(=O)c3cccc(OC)c3C)CCCC2)c1 [Example 5] 0.02

Query: 13B3 Rel Max FI; subject: CCC(CC)(NC(=O)c1cccc(OC)c1C)C(=O)c1ccccc1OC [Example 37] 0.08

Report 13B3 Rel Max FI for COc1cccc(C(=O)NC(C)(C(=O)c2ccc(F)c(C)c2)C(C)C)c1C (stereo not drawn) [Example 56] please. 0.00

Any idea what its 13B3 Rel Max FI is? The compound is COc1cccc(C(=O)NC2(C(=O)c3ccccc3C)CCCCC2)c1C [Example 44] 0.00

Request the reported 13B3 Rel Max FI associated with COc1cccc(C(=O)NC2(C(=O)c3cc(C)cc(C)c3)CCC3(CC2)OCCO3)c1C [Example 29] 0.00

May I ask what 13B3 Rel Max FI has been recorded for CCc1ccc(C(=O)NC2(C(=O)c3ccccc3)CCCC2)cc1 [Example 3] ? 0.00

Returns the measured 13B3 Rel Max FI for the input compound. Input: COc1cccc(C(=O)C(C)(NC(=O)c2cccc(OC)c2C)C(C)C)c1 (stereo not drawn) [Example 32] 0.00

Look up 13B3 Rel Max FI for this compound: CCC(CC)(NC(=O)c1cccc(OC)c1C)C(=O)c1cccc(C)c1 [Example 48] 0.00

Need 13B3 Rel Max FI of CCc1c(OC)cccc1C(=O)NC1(C(=O)c2ccccc2)CCCC1 [Example 21] , thanks. 0.00

Which 13B3 Rel Max FI is listed for COc1cccc(C(=O)NC2(C(=O)c3cc(C)cc(C)c3)CCSCC2)c1C [Example 28] ? 0.74

I'd like to know its 13B3 Rel Max FI. The compound in question is COc1cccc(C(=O)NC(C)(C(=O)c2cc(C)cc(C)c2)C(C)C)c1C (stereo not drawn) [Example 20] 0.92

Data request, read-out 13B3 Rel Max FI, for COc1cccc(C(=O)NC2(C(=O)c3cc(F)c(F)c(OC)c3)CCCCC2)c1C [Example 68] 1.00

Field request: 13B3 Rel Max FI | item: COc1cccc(C(=O)NC(C)(C(=O)c2ccccc2C)C(C)C)c1C (stereo not drawn) [Example 63] 0.03

I'd like to know its 13B3 Rel Max FI. The compound in question is COc1cc(C(=O)C2(NC(=O)c3cccc(OC)c3C)CCCC2)cc(OC)c1C [Example 65] 0.03

For the compound COc1cccc(C(=O)NC2(C(=O)c3cccc(C)c3)CCOCC2)c1C [Example 25] , what 13B3 Rel Max FI is on record? 0.00

# input compound: COc1cccc(C(=O)NC2(C(=O)c3cc(C)cc(C)c3)CCC2)c1C [Example 14] ; wanted: its 13B3 Rel Max FI 0.33

What value of 13B3 Rel Max FI has been reported for the following compound? COc1cccc(C(=O)NC2(C(=O)c3cc(C)cc(C)c3)CCCCC2)c1C [Example 11] 1.15

Entry COc1cccc(C(=O)NC2(C(=O)c3cc(C)cc(C)c3)CC2)c1C [Example 13] : reported 13B3 Rel Max FI = ? 0.00

These measurements were taken from patent US8129355B2.
